- assayed target: USP7 (Homo sapiens, UniProt Q93009)
- Construct: USP7, construct USP7 (208-1102) 6*His, Viva Biotech; 6xHis (C); purchased Viva Biotech
- Sequence (Q93009 208-1102): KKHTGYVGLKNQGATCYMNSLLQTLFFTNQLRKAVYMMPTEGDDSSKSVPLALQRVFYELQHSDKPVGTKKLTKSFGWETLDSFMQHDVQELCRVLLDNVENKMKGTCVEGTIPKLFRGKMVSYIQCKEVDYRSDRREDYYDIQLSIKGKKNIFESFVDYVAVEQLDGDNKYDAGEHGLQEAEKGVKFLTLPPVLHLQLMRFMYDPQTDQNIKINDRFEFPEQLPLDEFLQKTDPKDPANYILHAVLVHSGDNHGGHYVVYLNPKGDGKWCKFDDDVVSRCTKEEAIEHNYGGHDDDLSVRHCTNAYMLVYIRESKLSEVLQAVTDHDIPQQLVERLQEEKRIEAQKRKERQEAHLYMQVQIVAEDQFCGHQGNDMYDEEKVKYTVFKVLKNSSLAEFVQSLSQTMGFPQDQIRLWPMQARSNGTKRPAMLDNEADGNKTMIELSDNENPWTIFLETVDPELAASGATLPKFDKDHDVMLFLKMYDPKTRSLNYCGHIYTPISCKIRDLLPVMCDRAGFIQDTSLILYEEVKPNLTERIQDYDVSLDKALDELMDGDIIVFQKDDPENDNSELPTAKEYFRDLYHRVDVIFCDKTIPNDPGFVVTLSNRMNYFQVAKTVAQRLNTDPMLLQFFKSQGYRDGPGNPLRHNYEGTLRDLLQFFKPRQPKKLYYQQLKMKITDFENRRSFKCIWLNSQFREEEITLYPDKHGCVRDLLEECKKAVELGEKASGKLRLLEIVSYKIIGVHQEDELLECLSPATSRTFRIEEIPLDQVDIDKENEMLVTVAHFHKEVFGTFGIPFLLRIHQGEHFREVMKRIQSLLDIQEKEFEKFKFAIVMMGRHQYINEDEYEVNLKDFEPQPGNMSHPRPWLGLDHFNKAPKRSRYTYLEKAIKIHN
- method notes: USP7 Assay A (Ubitquin-Rhodamine 110 Assay)
- Format: biochemical
- test context: USP7 assay A and B (table does not say which assay per compound); read-out: USP7_IC50
pIC50: −log10 of the molar value.
recorded endpoint: pIC50

Previously resolved entries follow.
>  <compound>
C[C@@]1(O)CCN(c2cc(-n3ncc4c(=O)n(CC5(O)CCN(C(=O)C6CC6)CC5)cnc43)ccc2F)C1 [Compound I-638]

>  <pIC50>
6.00 to 6.70

$$$$
>  <compound>
COc1cc(C(=O)N2CCC(O)(Cn3cnc4c(cnn4-c4ccccc4)c3=O)CC2)ccc1Cl [Compound I-226]

>  <pIC50>
5.00 to 6.00

$$$$
>  <compound>
O=C(C1CC1)N1CCC(O)(Cn2cnc3c(cnn3-c3ccc(CN4CCCCC4)cc3)c2=O)CC1 [Compound I-431]

>  <pIC50>
5.00 to 6.00

$$$$
>  <compound>
CN1CCCCC1COc1ccc(-n2ncc3c(=O)n(CC4(O)CCN(C(=O)c5ccc(F)cc5)CC4)cnc32)cc1 (centres unmarked) [Compound I-1313]

>  <pIC50>
6.00 to 6.70

$$$$
>  <compound>
O=C(c1ccc(C2CC2)cc1)N1CCC(O)(Cn2cnc3c(cnn3-c3ccc(F)cc3)c2=O)CC1 [Compound I-304]

>  <pIC50>
5.00 to 6.00

$$$$
>  <compound>
CC(O)(c1ccc(C(=O)N2CCC(O)(Cn3cnc4c(cnn4-c4ccccc4)c3=O)CC2)cc1)C(F)(F)F (centres unmarked) [Compound I-291]

>  <pIC50>
5.00 to 6.00

$$$$

Provide pIC50 for all items below, preserving their order.
1. O=C(c1ccc(-c2ccc(-n3ncc4c(=O)n(CC5(O)CCN(C(=O)C6CC6)CC5)cnc43)cc2)cc1)N1CCCC1 [Compound I-333]
2. COc1cc(-n2ncc3c(=O)n(CC4(O)CCN(C(=O)c5ccc(F)cc5)CC4)cnc32)ccc1F [Compound I-627]

Result:
1: 5.00 to 6.00; 2: 5.00 to 6.00

Quick batch: pIC50 for everything below.
1. O=C(C[C@H](C(F)F)n1cccn1)N1CCC(O)(Cn2cnc3c(cnn3-c3ccc(F)cc3)c2=O)CC1 [Compound I-517]
2. CN(C)C(=O)Nc1ccc(-n2ncc3c(=O)n(CC4(O)CCN(C(=O)C5CC5)CC4)cnc32)cc1 [Compound I-492]
3. CN1CCN(c2ccc(C(=O)N3CCC(O)(Cn4cnc5c(cnn5-c5ccc(F)cc5)c4=O)CC3)cc2)CC1 [Compound I-606]
4. O=C(c1ccccc1)N1CCC(O)(Cn2cnc3c(cnn3-c3cccc(O)c3)c2=O)CC1 [Compound I-19]
5. O=C(c1ccc(F)c(Cl)c1)N1CCC(O)(Cn2cnc3c(cnn3-c3ccccc3)c2=O)CC1 [Compound I-210]
6. CN(C)S(=O)(=O)Nc1ccc(-n2ncc3c(=O)n(CC4(O)CCN(C(=O)C5CC5)CC4)cnc32)cc1 [Compound I-505]

Result:
5.00 to 6.00
5.00 to 6.00
5.00 to 6.00
5.00 to 6.00
5.00 to 6.00
5.00 to 6.00

====

- assayed target: USP7 (Homo sapiens, UniProt Q93009)
- Construct: USP7, construct USP7 (208-1102) 6*His, Viva Biotech; 6xHis (C); purchased Viva Biotech
- method notes: USP7 Assay A (Ubitquin-Rhodamine 110 Assay)
- Type: biochemical
- test context: USP7 activity in USP7 assay A and B (table does not say which assay per compound); read-out: USP7_IC50
Give measured IC50 for each item. Keep answers brief.

>  <compound>
O=C(c1ccc(F)cc1)N1CCC(O)(Cn2cnc3c(cnn3-c3ccc(N4CCN5CCCC[C@@H]5C4)cc3)c2=O)CC1

>  <IC50>
< 0.2 µM

$$$$
>  <compound>
O=C(c1ccc(N2CC3CC2CN3)cc1)N1CCC(O)(Cn2cnc3c(cnn3-c3ccc(F)cc3)c2=O)CC1 (stereo not shown)

>  <IC50>
1 to 10 µM

$$$$

For each listed entry, give its IC50.
1. CN1CCN(C(=O)N2CCC(O)(Cn3cnc4c(cnn4-c4ccc(OC5CCC(F)(F)CC5)cc4)c3=O)CC2)CC1
2. O=C(c1ccc(-n2ncc3c2CNC3)cc1)N1CCC(O)(Cn2cnc3c(cnn3-c3ccc(F)cc3)c2=O)CC1

Result:
> 10 µM
1 to 10 µM

====

- assayed target: USP7 (Homo sapiens, UniProt Q93009)
- Construct: USP7, construct USP7 (208-1102) 6*His, Viva Biotech; 6xHis (C); purchased Viva Biotech
- method notes: USP7 Assay A (Ubitquin-Rhodamine 110 Assay)
- Assay type: biochemical
- test context: USP7 activity in USP7 assay A and B (table does not say which assay per compound); read-out: USP7_IC50
- Protocol: Each assay was performed in a final volume of 15 μL in assay buffer containing 20 mM Tris-HCl (pH 8.0, (1M Tris-HCl, pH 8.0 solution; Corning 46-031-CM)), 1 mM GSH (L-Glutathione reduced; Sigma #G4251), 0.03% BGG ([…], Sigma, #G7516-25G), and 0.01% Triton X-100 (Sigma, #T9284-10L). […] Fluorescence was read on the Envision (Excitation at 485 nm and Emission at 535 nm; Perkin Elmer) or on the PheraSTAR (Excitation at 485 nm and Emission at 535 nm; BMG Labtech). […]
Consider the following molecules; for each one, report its IC50.

Study these solved cases before continuing.
>  <molecule>
O=C(N1CCC(Oc2ccccn2)CC1)N1CCC(O)(Cn2cnc3c(cnn3-c3ccc(F)cc3)c2=O)CC1 [Compound I-610]

>  <assayed target>
USP7 (Homo sapiens, UniProt Q93009)

>  <result>
1000 to 10000 nM

$$$$
>  <molecule>
Cc1ccc(-n2ncc3c(=O)n(CC4(O)CCN(C(=O)c5ccc(Cl)cc5N)CC4)cnc32)cc1 [Compound I-1140]

>  <assayed target>
USP7 (Homo sapiens, UniProt Q93009)

>  <result>
200 to 1000 nM

$$$$

Would you be so kind as to report IC50 for each listed record?
1. CC(=O)N1C[C@@H]2C[C@H]1CN2c1ccc(-n2ncc3c(=O)n(CC4(O)CCN(C(=O)C5(C)CC5)CC4)cnc32)cc1 [Compound I-1747]
2. CNC1CCN(c2ccc(-c3ccc(-n4ncc5c(=O)n(CC6(O)CCN(C(=O)C7CC7)CC6)cnc54)cc3)cn2)C1 (stereo not drawn) [Compound I-845]
3. O=C(N1CCC(O)(Cn2cnc3c(cnn3-c3ccc(F)cc3)c2=O)CC1)N1CC[C@H]1Cc1ccccc1 [Compound I-760]
4. O=C(c1ccc(-n2ccnc2)cc1)N1CCC(O)(Cn2cnc3c(cnn3-c3ccc(Cl)cc3)c2=O)CC1 [Compound I-1088]

Result:
1. 200 to 1000 nM
2. < 200 nM
3. 1000 to 10000 nM
4. 200 to 1000 nM

====

- assayed target: USP7 (Homo sapiens)
- Construct: USP7, construct USP7 (208-1102) 6*His, Viva Biotech; 6xHis (C); purchased Viva Biotech
- method notes: USP7 Assay A (Ubitquin-Rhodamine 110 Assay)
- Type: biochemical
- test context: USP7 activity in USP7 assay A and B (table does not say which assay per compound); read-out: USP7_IC50
Could you please report measured IC50 for the items listed next?

Completed entries (count: 2):
>  <molecule>
O=C(C[C@H](C(F)F)n1ccc(F)n1)N1CCC(O)(Cn2cnc3c(cnn3-c3cccc(N4CC5CC5C4)c3)c2=O)CC1 (stereo partly drawn) [Compound I-791]

>  <assayed target>
USP7 (Homo sapiens)

>  <IC50>
200 to 1000 nM

$$$$
>  <molecule>
O=C(C1CCC(NC2CC2)CC1)N1CCC(O)(Cn2cnc3c(cnn3-c3ccc(F)cc3)c2=O)CC1 (stereo not drawn) [Compound I-769]

>  <assayed target>
USP7 (Homo sapiens)

>  <IC50>
200 to 1000 nM

$$$$

Ask: Record Cn1ccc(OC2CCC(C(=O)N3CCC(O)(Cn4cnc5c(ccn5-c5ccc(F)cc5)c4=O)CC3)CC2)n1 (stereo not drawn) [Compound I-1067] : what is its IC50 with USP7 (Homo sapiens)?
Result: 200 to 1000 nM

====

So I've got a bunch of molecules here, and I need their IC50 values.
- assayed target: USP7 (Homo sapiens)
- Construct: USP7, construct USP7 (208-1102) 6*His, Viva Biotech; 6xHis (C); purchased Viva Biotech
- method notes: USP7 Assay A (Ubitquin-Rhodamine 110 Assay)
- Format: biochemical
- test context: USP7 activity in USP7 assay A and B (table does not say which assay per compound); read-out: USP7_IC50

>  <molecule>
CN[C@H]1CCN(c2ccc(-c3ccc(-n4ncc5c(=O)n(CC6(O)CCN(C(=O)C7CC7)CC6)cnc54)cc3)cc2)C1 [Compound I-689]

>  <IC50>
< 200 nM

$$$$
>  <molecule>
Cn1cc(-c2ccc(-n3ncc4c(=O)n(CC5(O)CCN(C(=O)c6ccc(F)cc6)CC5)cnc43)cc2)cn1 [Compound I-1672]

>  <IC50>
1000 to 10000 nM

$$$$
>  <molecule>
Cc1ccc(C(=O)N2CCC(O)(Cn3cnc4c(cnn4-c4ccc(-n5cc(OCCO)cn5)cc4)c3=O)CC2)cc1 [Compound I-672]

>  <IC50>
200 to 1000 nM

$$$$
>  <molecule>
CC1(C(=O)N2CCC(O)(Cn3cnc4c(cnn4-c4cccc(N5CCC(F)CC5)c4)c3=O)CC2)CC1 [Compound I-1561]

>  <IC50>
< 200 nM

$$$$
>  <molecule>
CC1(O)CCN(c2ccc(-n3ncc4c(=O)n(CC5(O)CCN(C(=O)C6CC6)CC5)cnc43)cc2)C1 (stereo not shown) [Compound I-1657]

>  <IC50>
1000 to 10000 nM

$$$$
>  <molecule>
C[C@@H]1CN(c2cccc(-n3ncc4c(=O)n(CC5(O)CCN(C(=O)C6(C)CC6)CC5)cnc43)c2)CCN1C [Compound I-1689]

>  <IC50>
< 200 nM

$$$$
>  <molecule>
O=C(C[C@@H](n1cccn1)C(F)(F)F)N1CCC(O)(Cn2cnc3c(cnn3-c3ccc(F)cc3)c2=O)CC1 [Compound I-913]

>  <IC50>
1000 to 10000 nM

$$$$
>  <molecule>
Cc1ncn(-c2ccc(-n3ncc4c(=O)n(CC5(O)CCN(C(=O)c6ccc(F)cc6)CC5)cnc43)cc2)n1 [Compound I-673]

>  <IC50>
1000 to 10000 nM

$$$$

Hi team, please reply with IC50 for each item in this list.
1. O=C(C1CCc2cn[nH]c2C1)N1CCC(O)(Cn2cnc3c(cnn3-c3ccc(F)cc3)c2=O)CC1 (stereo not shown) [Compound I-724]
2. O=C(C1CCC(Nc2ccccc2)CC1)N1CCC(O)(Cn2cnc3c(cnn3-c3ccc(F)cc3)c2=O)CC1 (stereo not shown) [Compound I-768]

Result:
1. 200 to 1000 nM
2. < 200 nM

// data source = patent US9902728B2
